B1: Hairpin Ribozyme (parent)
chain: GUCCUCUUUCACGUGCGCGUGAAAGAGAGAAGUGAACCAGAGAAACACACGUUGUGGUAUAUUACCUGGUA

- Variants of: B1
- Test summary: self-cleavage, relative activity (ratio to wild type); higher = more cleavage; co-transcriptional
In this section, each of the variants is paired with its reported self-cleavage.

| Var | self-cleavage |
| --- | --- |
| U20A A49C | 0.131 |
| C4G A26G | 0.16 |
| C38G C50A | 0.162 |
| U7G A59G | 0.0757 |
| A30G G51A | 0.254 |
| C10A A44C | 0.141 |
| U7A C46A | 0.0948 |
| G19A C65A | 0.748 |
| A22U A36G | 0.849 |
| G27U A64G | 0.205 |
| G34U C65G | 1.35 |
| A28G C48U | 0.276 |
| C46G G69C | 0.123 |
| U20G A64U | 0.141 |
| C46G C66A | 0.253 |
| C46G U70G | 0.149 |
| U9C A28C | 0.394 |
